Where do these numbers come from? They come from ChEMBL document CHEMBL1806455.

Tested on: Streptococcus pneumoniae
Experiment: Antibacterial activity against constitutive macrolide, lincosamide, streptogramin-resistant Streptococcus pneumoniae 58 spain by broth microdilution method
Type: functional
endpointLabel: MIC (µg/mL)

# structureAsSmiles, unitTag, assayValue
rows = [
    ("CC[C@H]1OC(=O)[C@H](C)[C@@H](O[C@H]2C[C@@](C)(OC)[C@@H](OC(=O)CCOCCOc3ccc4c(c3)c(=O)c(C(=O)OCC(C)=O)cn4C3CC3)[C@H](C)O2)[C@H](C)[C@@H](O[C@@H]2O[C@H](C)C[C@H](N(C)C)[C@H]2O)[C@](C)(O)C[C@@H](C)CN(C)[C@H](C)[C@@H](O)[C@]1(C)O", "µg/mL", 0.5),
]

====

MIC listing for selected compounds.
Test system: Streptococcus pneumoniae
Assay: Antibacterial activity against constitutive macrolide, lincosamide, streptogramin-resistant Streptococcus pneumoniae 58 spain by broth microdilution method
Assay type: functional
endpointLabel: MIC

# structureAsSmiles, assayValue
data = [
    ("CCCOC(=O)c1cn(C2CC2)c2ccc(NCCOCCC(=O)O[C@H]3[C@H](C)O[C@@H](O[C@H]4[C@H](C)[C@@H](O[C@@H]5O[C@H](C)C[C@H](N(C)C)[C@H]5O)[C@](C)(O)C[C@@H](C)CN(C)[C@H](C)[C@@H](O)[C@](C)(O)[C@@H](CC)OC(=O)[C@@H]4C)C[C@@]3(C)OC)cc2c1=O", "≤ 0.125 µg/mL"),
    ("CC[C@H]1OC(=O)[C@H](C)[C@@H](O[C@H]2C[C@@](C)(OC)[C@@H](OC(=O)CCOCCNc3ccc4c(c3)c(=O)c(C(=O)OCCN3CCCCC3)cn4C3CC3)[C@H](C)O2)[C@H](C)[C@@H](O[C@@H]2O[C@H](C)C[C@H](N(C)C)[C@H]2O)[C@](C)(O)C[C@@H](C)CN(C)[C@H](C)[C@@H](O)[C@]1(C)O", "≤ 0.125 µg/mL"),
]

====

Tested on: Staphylococcus aureus
Test: Antibacterial activity against erythromycin-sensitive Staphylococcus aureus ATCC 13709 by broth microdilution method
Format: functional

# structureAsSmiles, studyTarget, resultModifier, MIC / µg/mL
rows = [
    ("CC[C@H]1OC(=O)[C@H](C)[C@@H](O[C@H]2C[C@@](C)(OC)[C@@H](OC(=O)CCOCCOc3ccc4c(c3)c(=O)c(C(=O)OC(C)C)cn4C3CC3)[C@H](C)O2)[C@H](C)[C@@H](O[C@@H]2O[C@H](C)C[C@H](N(C)C)[C@H]2O)[C@](C)(O)C[C@@H](C)CN(C)[C@H](C)[C@@H](O)[C@]1(C)O", "Staphylococcus aureus", "=", 1),
    ("CC[C@H]1OC(=O)[C@H](C)[C@@H](O[C@H]2C[C@@](C)(OC)[C@@H](OC(=O)CCOCCOCCNc3ccc4c(c3)c(=O)c(C(=O)O)cn4CC)[C@H](C)O2)[C@H](C)[C@@H](O[C@@H]2O[C@H](C)C[C@H](N(C)C)[C@H]2O)[C@](C)(O)C[C@@H](C)CN(C)[C@H](C)[C@@H](O)[C@]1(C)O", "Staphylococcus aureus", "=", 0.25),
    ("CC[C@H]1OC(=O)[C@H](C)[C@@H](O[C@H]2C[C@@](C)(OC)[C@@H](OC(=O)CCOCCNc3cc4c(=O)c(C(=O)OC(C)C)cn(C5CC5)c4cc3Cl)[C@H](C)O2)[C@H](C)[C@@H](O[C@@H]2O[C@H](C)C[C@H](N(C)C)[C@H]2O)[C@](C)(O)C[C@@H](C)CN(C)[C@H](C)[C@@H](O)[C@]1(C)O", "Staphylococcus aureus", "=", 0.5),
    ("CCCOC(=O)c1cn(C2CC2)c2cc(Cl)c(NCCOCCC(=O)O[C@H]3[C@H](C)O[C@@H](O[C@H]4[C@H](C)[C@@H](O[C@@H]5O[C@H](C)C[C@H](N(C)C)[C@H]5O)[C@](C)(O)C[C@@H](C)CN(C)[C@H](C)[C@@H](O)[C@](C)(O)[C@@H](CC)OC(=O)[C@@H]4C)C[C@@]3(C)OC)cc2c1=O", "Staphylococcus aureus", "=", 1),
    ("CC[C@H]1OC(=O)[C@H](C)[C@@H](O[C@H]2C[C@@](C)(OC)[C@@H](OC(=O)CCOCCNc3cc4c(=O)c(C(=O)OCCN5CCCC5)cn(C5CC5)c4cc3Cl)[C@H](C)O2)[C@H](C)[C@@H](O[C@@H]2O[C@H](C)C[C@H](N(C)C)[C@H]2O)[C@](C)(O)C[C@@H](C)CN(C)[C@H](C)[C@@H](O)[C@]1(C)O", "Staphylococcus aureus", "=", 0.25),
    ("CC[C@H]1OC(=O)[C@H](C)[C@@H](O[C@H]2C[C@@](C)(OC)[C@@H](OC(=O)CCOCCOCCNc3cc4c(=O)c(C(=O)O)cn(C(C)C)c4cc3Cl)[C@H](C)O2)[C@H](C)[C@@H](O[C@@H]2O[C@H](C)C[C@H](N(C)C)[C@H]2O)[C@](C)(O)C[C@@H](C)CN(C)[C@H](C)[C@@H](O)[C@]1(C)O", "Staphylococcus aureus", "≤", 0.125),
    ("CC[C@H]1OC(=O)[C@H](C)[C@@H](O[C@H]2C[C@@](C)(OC)[C@@H](OC(=O)CCOCCOCCNc3cc4c(=O)c(C(=O)O)cn(C5CC5)c4cc3Cl)[C@H](C)O2)[C@H](C)[C@@H](O[C@@H]2O[C@H](C)C[C@H](N(C)C)[C@H]2O)[C@](C)(O)C[C@@H](C)CN(C)[C@H](C)[C@@H](O)[C@]1(C)O", "Staphylococcus aureus", "=", 0.25),
    ("CCCOC(=O)c1cn(C2CC2)c2ccc(NCCOCCC(=O)O[C@H]3[C@H](C)O[C@@H](O[C@H]4[C@H](C)[C@@H](O[C@@H]5O[C@H](C)C[C@H](N(C)C)[C@H]5O)[C@](C)(O)C[C@@H](C)CN(C)[C@H](C)[C@@H](O)[C@](C)(O)[C@@H](CC)OC(=O)[C@@H]4C)C[C@@]3(C)OC)cc2c1=O", "Staphylococcus aureus", "=", 0.5),
    ("CCC(=O)CNC(=O)COC(=O)c1cn(C2CC2)c2ccc(NCCOCCC(=O)O[C@H]3[C@H](C)O[C@@H](O[C@H]4[C@H](C)[C@@H](O[C@@H]5O[C@H](C)C[C@H](N(C)C)[C@H]5O)[C@](C)(O)C[C@@H](C)CN(C)[C@H](C)[C@@H](O)[C@](C)(O)[C@@H](CC)OC(=O)[C@@H]4C)C[C@@]3(C)OC)cc2c1=O", "Staphylococcus aureus", "=", 1),
    ("CC[C@H]1OC(=O)[C@H](C)C(=O)[C@H](C)[C@@H](O[C@@H]2O[C@H](C)C[C@H](N(C)C)[C@H]2O)[C@](C)(OC)C[C@@H](C)C(=O)[C@H](C)[C@H]2N(CCCCn3cnc(-c4cccnc4)c3)C(=O)O[C@]12C", "Staphylococcus aureus", "=", 0.125),
    ("CC[C@H]1OC(=O)[C@H](C)[C@@H](O[C@H]2C[C@@](C)(OC)[C@@H](O)[C@H](C)O2)[C@H](C)[C@@H](O[C@@H]2O[C@H](C)C[C@H](N(C)C)[C@H]2O)[C@](C)(O)C[C@@H](C)CN(C)[C@H](C)[C@@H](O)[C@]1(C)O", "Staphylococcus aureus", "=", 0.5),
    ("CCCn1cc(C(=O)O)c(=O)c2cc(NCCOCCOCCC(=O)O[C@H]3[C@H](C)O[C@@H](O[C@H]4[C@H](C)[C@@H](O[C@@H]5O[C@H](C)C[C@H](N(C)C)[C@H]5O)[C@](C)(O)C[C@@H](C)CN(C)[C@H](C)[C@@H](O)[C@](C)(O)[C@@H](CC)OC(=O)[C@@H]4C)C[C@@]3(C)OC)c(Cl)cc21", "Staphylococcus aureus", "=", 0.25),
    ("CC[C@H]1OC(=O)[C@H](C)[C@@H](O[C@H]2C[C@@](C)(OC)[C@@H](OC(=O)CCOCCNc3cc4c(=O)c(C(=O)OCOC(=O)C(C)(C)C)cn(C5CC5)c4cc3Cl)[C@H](C)O2)[C@H](C)[C@@H](O[C@@H]2O[C@H](C)C[C@H](N(C)C)[C@H]2O)[C@](C)(O)C[C@@H](C)CN(C)[C@H](C)[C@@H](O)[C@]1(C)O", "Staphylococcus aureus", "=", 1),
]
